Quantity Kind: melting point (°C)

[
  {
    "Compound": "O=C(OC)\\C1=C(\\N/C(=C(/C(=O)OC)C1c2ccccc2[N+]([O-])=O)C)C",
    "Unit Name": "°C",
    "Reported Result": 173
  },
  {
    "Compound": "CC(C)(C)O [tert-butyl alcohol, anhydrous]",
    "Unit Name": "°C",
    "Reported Result": 25
  },
  {
    "Compound": "C[C@]12CC[C@@H]3O[C@@H]3[C@H]1CC[C@@H]1[C@@H]2CC[C@]2(C)C(=O)CC[C@@H]12",
    "Unit Name": "°C",
    "Reported Result": 136
  },
  {
    "Compound": "CCOC(=O)Cc1c(C)n(C(=O)c2ccc(Cl)cc2)c2ccc(OC)cc12",
    "Unit Name": "°C",
    "Reported Result": 96
  },
  {
    "Compound": "CCN(CC)c1ccc(C=O)cc1",
    "Unit Name": "°C",
    "Reported Result": 40
  },
  {
    "Compound": "Cc1cccc(C(N)=O)c1 [m-toluamide]",
    "Unit Name": "°C",
    "Reported Result": 96
  },
  {
    "Compound": "CCCCCCCC/C=C/CCCCCCCC(=O)OC [methyl elaidate]",
    "Unit Name": "°C",
    "Reported Result": 10
  },
  {
    "Compound": "COc1ccc2cc(OC)ccc2c1",
    "Unit Name": "°C",
    "Reported Result": 153
  }
]

P. Oc1ccc(Cl)c(O)c1
Q. CCOC(=O)c1ccc(N=C=O)cc1 [4-(ethoxycarbonyl)phenyl isocyanate]
# input Which value of melting point is greater, the one for P or the one for Q ? When you have decided, please share the label of that item.
# output P
(P: 107 °C, Q: 30 °C)

I. CC#CCCC
II. O=C(O)c1cc(F)nc(F)c1F
# input For the pair I and II , which member has the lower melting point number? Write down the label attached to your selection.
# output I

P. C1=CC2=CC=C3C=CC=CC4=C3CC2=C(C=C1)C=C4 [6H-5,7-ethenocyclohepta[b]heptalene]
Q. CC(=O)N(C1=NC(=O)/C(=C/c2cc(C)n(-c3ccc(C)cc3)c2C)S1)c1ccccc1
# input Short answer wanted: higher melting point, P or Q ? Your choice should be expressed through its label.
# output Q

====

Quantity Kind: melting point (°C)

Worked set:
[
  {
    "Compound": "OC[C@@H](O)COCc1ccccc1",
    "Reported Result": 27.5
  },
  {
    "Compound": "ClC(Cl)c1ccccc1",
    "Reported Result": -16
  },
  {
    "Compound": "C[C@@H](CN1CC(=O)NC(=O)C1)N1CC(=O)NC(=O)C1",
    "Reported Result": 194
  },
  {
    "Compound": "COc1ccc2[nH]c([S+]([O-])Cc3ncc(C)c(OC)c3C)nc2c1 (configuration not stated)",
    "Reported Result": 156
  },
  {
    "Compound": "O=Cc1cccc(O)c1 [3-hydroxybenzaldehyde]",
    "Reported Result": 105
  },
  {
    "Compound": "CCCC(=O)Nc1ccc(OCC(O)CNC(C)C)c(C(C)=O)c1 (configuration not stated)",
    "Reported Result": 119
  },
  {
    "Compound": "CC(C)c1ncc([N+](=O)[O-])n1C",
    "Reported Result": 61
  },
  {
    "Compound": "COC(=O)CC(C)=O [methyl_acetoacetate]",
    "Reported Result": -80
  },
  {
    "Compound": "C#CCCCCCCCCCCCCCCCCC",
    "Reported Result": 33
  },
  {
    "Compound": "Cc1ccc(I)cc1",
    "Reported Result": 43
  }
]

A. COc1ccc(Cl)c(Cl)c1Cl [1-methoxy-2,3,4-trichlorobenzene]
B. CCCCCCCCCCCCCCCCCCC [N-nonadecane]
C. CCC(C)S (configuration not stated)
D. CC#CCOS(=O)(=O)c1ccc(C)cc1 [2-butynyl p-toluenesulfonate]
# input Please give the order of these compounds when sorted by melting point, largest value leading. Sort and list the labels as requested.
# output A, D, B, C

====

Quantity Kind: melting point (°C)

[
  {
    "Molecule": "CCOC(=O)/C(C#N)=C/c1ccc(-c2ccccc2Br)o1",
    "melting point [°C]": 124
  },
  {
    "Molecule": "O=C=Nc1cccc([N+](=O)[O-])c1 [3-nitrophenyl isocyanate]",
    "melting point [°C]": 52
  },
  {
    "Molecule": "Cc1cc(CO)c(O)c(CO)c1 [2,6-bis(hydroxymethyl)-p-cresol]",
    "melting point [°C]": 123
  }
]

P. CCOC(=O)OCC [diethyl carbonate]
Q. CCN(CC)CCNc1ccc(CO)c2sc3ccccc3c(=O)c12
# input Which record would sort first by descending melting point, P or Q ? Pick one; state its label.
# output Q
(Q: 101 °C, P: -43 °C)

====

Quantity Kind: melting point (°C)

[
  {
    "Compound": "C[C@@H](O)[C@H](N)C(=O)O [L-Threonine]",
    "Unit Name": "°C",
    "melting point": 256
  },
  {
    "Compound": "CS(=O)(=O)c1ccccc1 [methyl phenyl sulfone]",
    "Unit Name": "°C",
    "melting point": 87
  },
  {
    "Compound": "COc1ccc(CCN)cc1OC [2-(3,4-dimethoxyphenyl)ethylamine]",
    "Unit Name": "°C",
    "melting point": 11
  },
  {
    "Compound": "Oc1ccccc1/C=N/n1c(S)nnc1C(F)(F)F",
    "Unit Name": "°C",
    "melting point": 156
  },
  {
    "Compound": "N#CCc1ccc(Br)cc1 [p-bromophenylacetonitrile]",
    "Unit Name": "°C",
    "melting point": 48
  }
]

a. C=CC(=O)O [acrylic acid]
b. CCCCCCCCCCCCCO [1-tridecanol]
c. O=C(CCCc1ccccc1)c1ccccc1 [1,4-diphenyl-1-butanone]
# input Given 3 compounds, produce a descending ranking by melting point. Please express your ranking as an ordered list of the labels.
# output c, b, a

P. NCCNCCNCCNCCN
Q. CCCCCCCCSc1cc(N(NC(=O)OC(C)(C)C)C(=O)OC(C)(C)C)cc(SCCCCCCCC)c1SCCCCCCCC
# input // returns P or Q , whichever has the lower melting point Refer to your chosen entry by its label in the reply.
# output P

1. COc1ccc(OC)cc1 [1,4-Dimethoxybenzene]
2. COc1ccc2ccccc2c1C=O [2-methoxy-1-naphthaldehyde]
3. Fc1cccc2ccccc12 [1-fluoronaphthalene]
4. CC(=O)Oc1c(C)c(C)c2c(c1C)CC[C@@](C)(CCC[C@H](C)CCC[C@H](C)CCCC(C)C)O2 [vitamin e acetate]
5. CC12CCC(C(=O)C1=O)C2(C)C (stereo unspecified) [camphorquinone]
# input Ascending sort, melting point. Answer format: list of labels, ordered as asked.
# output 4, 3, 1, 2, 5
(4: -28 °C, 3: -10 °C, 1: 58 °C, 2: 84 °C, 5: 200 °C)

====

Quantity Kind: melting point (°C)

P. NC(=O)c1ccc(-c2ccccc2)cc1 [biphenyl-4-carboxamide]
Q. N#Cc1cccc(O)c1
R. CCCCCCc1ccccc1
S. COc1cc(Cl)cc(OC)c1
# input Please sort the compounds listed above from highest to lowest melting point. Your task in answering is to list the labels in the requested order.
# output P, Q, S, R
(P: 228 °C, Q: 82 °C, S: 34 °C, R: -61 °C)

P. NC(=O)N1c2ccccc2C=Cc2ccccc21 [Carbamazepine]
Q. CC(C)(C)c1ccc(O)c(O)c1
# input Select one. Lower melting point: P or Q Which one? Tell me its label.
# output Q

A. O=C1C(c2ccccc2)=C(c2ccccc2)C(c2ccccc2)=C1c1ccccc1
B. CCC(=O)O [propionic acid]
C. CCC(C)CC(=O)O (stereo not given)
# input // ranking: key=melting point, reverse=True A ranking is expressed here by listing the labels in the requested order.
# output A, B, C

====

Quantity Kind: melting point (°C)

Example compounds with recorded melting point:
[
  {
    "Compound": "O=c1[nH]cnc2c1ncn2[C@H]1CC[C@@H](CO)O1",
    "melting point / °C": 162
  },
  {
    "Compound": "CSC [Dimethyl sulfide]",
    "melting point / °C": -98
  },
  {
    "Compound": "COc1ccc(C(C)C)cc1B(O)O",
    "melting point / °C": 86
  }
]

A. CC(C)CCC[C@@H](C)[C@H]1CC[C@H]2[C@@H]3CC[C@H]4CC(=O)CC[C@]4(C)[C@H]3CC[C@]12C
B. Cc1nc(N)ccc1Br
# input // pick min by melting point: A , B Your choice should be expressed through its label.
# output B
(B: 81 °C, A: 130 °C)

Data provenance: the Bradley open melting point set (2014)
